Target: Polyunsaturated fatty acid lipoxygenase ALOX12 (Homo sapiens)
Assay: Confirmatory qHTS assay for inhibitors of human arachidonate 12S-lipoxygenase (ALOX12): Round 2
Conditions: purified human 12-LOX, xylenol orange absorbance; series mostly up to 125 µM
About 70 (6%) of roughly 1,100 compounds were called active. Inconclusive results (about 22%) are left out. Calls come from the whole dose curve; as a rule, active = well fitted curve in the direction sought with a large enough effect; inconclusive = small, poorly fitted or top-dose-only effect, or another doubt; inactive = no such curve, though single readings can be large or run the other way. Only a selection was taken, and actives are over-represented in it overall.
Outcome codes: active, inactive

COMPOUND: O=C1NCc2ccccc2CC12CCN(Cc1ccc(Br)cc1)C2 (stereo not drawn)
TARGET_DESC: Polyunsaturated fatty acid lipoxygenase ALOX12 (Homo sapiens)
ASSIGNED_CLASS: active
//
COMPOUND: NCc1cccc(-c2cc(C(F)(F)F)ccc2Cl)c1
TARGET_DESC: Polyunsaturated fatty acid lipoxygenase ALOX12 (Homo sapiens)
ASSIGNED_CLASS: inactive
//
COMPOUND: CC(=O)NC(C)c1cc(Cl)c2cccnc2c1O (stereo not drawn)
TARGET_DESC: Polyunsaturated fatty acid lipoxygenase ALOX12 (Homo sapiens)
ASSIGNED_CLASS: active
//
COMPOUND: Cc1ccc(CCN2CCCCC23Cc2ccccc2CN(C(=O)CCCC(=O)O)C3)cc1 (stereo not drawn)
TARGET_DESC: Polyunsaturated fatty acid lipoxygenase ALOX12 (Homo sapiens)
ASSIGNED_CLASS: inactive
//
COMPOUND: Cc1cc(C)c(CN2CCC3(Cc4ccccc4CNC3=O)C2)c(C)c1 (stereo not drawn)
TARGET_DESC: Polyunsaturated fatty acid lipoxygenase ALOX12 (Homo sapiens)
ASSIGNED_CLASS: active
//
COMPOUND: CC(=O)NC(C)c1cc(F)c2cccnc2c1O (stereo not drawn)
TARGET_DESC: Polyunsaturated fatty acid lipoxygenase ALOX12 (Homo sapiens)
ASSIGNED_CLASS: active
//
COMPOUND: O=C(c1ccccc1F)N1CCn2c(nnc2C2CCNCC2)C1
TARGET_DESC: Polyunsaturated fatty acid lipoxygenase ALOX12 (Homo sapiens)
ASSIGNED_CLASS: inactive
//
COMPOUND: CC(=O)NCCC(=O)N1Cc2ccccc2CC2(CCCN2CC2CCNCC2)C1 (stereo not drawn)
TARGET_DESC: Polyunsaturated fatty acid lipoxygenase ALOX12 (Homo sapiens)
ASSIGNED_CLASS: inactive
//
COMPOUND: CC(=O)NCc1cc(Cl)c2cccnc2c1O
TARGET_DESC: Polyunsaturated fatty acid lipoxygenase ALOX12 (Homo sapiens)
ASSIGNED_CLASS: active
//
COMPOUND: COCc1cc(C[C@@H]2CC[C@H](O)[C@@H](CNC(=O)NC(C)C)O2)no1
TARGET_DESC: Polyunsaturated fatty acid lipoxygenase ALOX12 (Homo sapiens)
ASSIGNED_CLASS: inactive
//
COMPOUND: O=C1NCc2ccccc2CC12CCN(Cc1ccc(Oc3ccccc3)cc1)C2 (stereo not drawn)
TARGET_DESC: Polyunsaturated fatty acid lipoxygenase ALOX12 (Homo sapiens)
ASSIGNED_CLASS: active
//
COMPOUND: O=C1NC(=NC2CCCC2)C2(CCN(CC3CC3)C2)N1c1cccnc1 (stereo not drawn)
TARGET_DESC: Polyunsaturated fatty acid lipoxygenase ALOX12 (Homo sapiens)
ASSIGNED_CLASS: inactive
//
COMPOUND: Cc1ccc(CN2CCc3oc(C)c(C(=O)N4CCSCC4)c3C2)cc1
TARGET_DESC: Polyunsaturated fatty acid lipoxygenase ALOX12 (Homo sapiens)
ASSIGNED_CLASS: inactive
//
COMPOUND: CCC(=O)NC(c1cc(Cl)c2cccnc2c1O)C(C)C (stereo not drawn)
TARGET_DESC: Polyunsaturated fatty acid lipoxygenase ALOX12 (Homo sapiens)
ASSIGNED_CLASS: active
//
COMPOUND: O=C1NCc2ccccc2CC12CCN(Cc1ccc(Cl)cc1)C2 (stereo not drawn)
TARGET_DESC: Polyunsaturated fatty acid lipoxygenase ALOX12 (Homo sapiens)
ASSIGNED_CLASS: active
//
COMPOUND: CCOc1ccc(CN2CCC3(Cc4ccccc4CNC3=O)C2)cc1 (stereo not drawn)
TARGET_DESC: Polyunsaturated fatty acid lipoxygenase ALOX12 (Homo sapiens)
ASSIGNED_CLASS: inactive
//
COMPOUND: O=C(c1cc(C2CC2)nc2onc(C3CCCNC3)c12)N1CCCCC1 (stereo not drawn)
TARGET_DESC: Polyunsaturated fatty acid lipoxygenase ALOX12 (Homo sapiens)
ASSIGNED_CLASS: inactive
//
COMPOUND: CN1CC(=O)N(C2CCCNCC2)Cc2c(NCc3cccs3)ncnc21 (stereo not drawn)
TARGET_DESC: Polyunsaturated fatty acid lipoxygenase ALOX12 (Homo sapiens)
ASSIGNED_CLASS: inactive
//
COMPOUND: Cn1nc(C2CCNC2)c2c(C(=O)NC3CC3)cc(C3CC3)nc21 (stereo not drawn)
TARGET_DESC: Polyunsaturated fatty acid lipoxygenase ALOX12 (Homo sapiens)
ASSIGNED_CLASS: inactive
//
COMPOUND: O=C1NC2(Cc3ccccc31)CN(C(=O)c1ccc3c(c1)OCO3)C2
TARGET_DESC: Polyunsaturated fatty acid lipoxygenase ALOX12 (Homo sapiens)
ASSIGNED_CLASS: inactive
//
COMPOUND: Cc1noc(C)c1C(=O)N1Cc2ccccc2CC2(CCCN(CC3CCNC3)C2)C1 (stereo not drawn)
TARGET_DESC: Polyunsaturated fatty acid lipoxygenase ALOX12 (Homo sapiens)
ASSIGNED_CLASS: inactive
//
COMPOUND: CC(=O)NC1CC2(CCN(C(=O)Cc3c(C)noc3C)CC2)Oc2ccccc21 (stereo not drawn)
TARGET_DESC: Polyunsaturated fatty acid lipoxygenase ALOX12 (Homo sapiens)
ASSIGNED_CLASS: inactive
//
COMPOUND: O=C(Nc1ccc(Oc2ccccc2)cc1)O[C@@H]1CO[C@H]2[C@@H]1OC[C@@H]2NS(=O)(=O)c1ccc(Cl)cc1
TARGET_DESC: Polyunsaturated fatty acid lipoxygenase ALOX12 (Homo sapiens)
ASSIGNED_CLASS: active
